Source: the OligoGym collection

Target Desc: APOL1
Recorded Conditions: ASO, A431, 1 µM
After the bases stand the sugars from the 5' end (letter, count) and the backbone: PS all phosphorothioate, else s phosphorothioate and o phosphodiester by linkage. Methylation of C is not given here. e = 2'-O-(2-methoxyethyl) (MOE); k = constrained ethyl (cEt); d = 2'-deoxy (DNA)
Result Type: target mRNA inhibition (%)
Answer with a number only, understood to be in %.

GGTTCAAAAGCAGCAT (sugars k2 d4 e3 k2 d5, PS); 94
GCTAATTTTCTGACTG (sugars kkdddddkekeddddd, PS); 94
GTTATGAAATTATTGG (sugars kekddddeekkddddd, PS); 84
AGCATCAAAAACCTGG (sugars k4 d9 k3, PS); 89

Given the sequence CAAGTCAGTACAGAGC (sugars k4 d9 k3, PS) and test system APOL1, the measured target mRNA inhibition is 94

Given the sequence CACATCATTGGGTTAT (sugars k4 d9 k3, PS) and test system APOL1, the measured target mRNA inhibition is 90

Given the sequence GGTTCAAAAGCAGCAT (sugars k4 d9 k3, PS) and test system APOL1, the measured target mRNA inhibition is 95

###

Target Desc: MALAT1
Recorded Conditions: ASO, A431, 0.005 µM
After the bases stand the sugars from the 5' end (letter, count) and the backbone: PS all phosphorothioate, else s phosphorothioate and o phosphodiester by linkage. Methylation of C is not given here. k = constrained ethyl (cEt); d = 2'-deoxy (DNA)
Result Type: target mRNA inhibition
Answer with the figure and its unit, nothing else.

// solved cases for target mRNA inhibition follow
TACGACTGCTTAAAAC (sugars k3 d10 k3, PS); 5%
ATCAGCTTCCGCTAAG (sugars k3 d10 k3, PS); 4%
GTTAACTAGGCTTTAA (sugars k3 d10 k3, PS); 23%
CGGGATCAGAACAGTA (sugars k3 d10 k3, PS); 24%
TAAGCGAATGGCTTTG (sugars k3 d10 k3, PS); 7%

For reference, reported target mRNA inhibition for GAACTAGTGGTTCCCA (sugars k3 d10 k3, PS) stands at 46%

###

target mRNA inhibition overview
Target Desc: APOL1
Recorded Conditions: ASO, A431, 1 µM
After the bases stand the sugars from the 5' end (letter, count) and the backbone: PS all phosphorothioate, else s phosphorothioate and o phosphodiester by linkage. Methylation of C is not given here. e = 2'-O-(2-methoxyethyl) (MOE); k = constrained ethyl (cEt); d = 2'-deoxy (DNA)
Answer with a number only, understood to be in %.

ATAATGGTAGGTCTAC (sugars k4 d9 k3, PS); 90
AGTATTGCCAGCTAAG (sugars k4 d9 k3, PS); 97
CTTTATACCAGTGTCT (sugars kkddddekekeddddd, PS); 95

Let us examine a further case.
For reference, reported target mRNA inhibition for GTAAGTGCAACCAATC (sugars k4 d9 k3, PS) stands at 99

###

Target Desc: APOL1
Recorded Conditions: ASO, A431, 2 µM
After the bases stand the sugars from the 5' end (letter, count) and the backbone: PS all phosphorothioate, else s phosphorothioate and o phosphodiester by linkage. Methylation of C is not given here. e = 2'-O-(2-methoxyethyl) (MOE); k = constrained ethyl (cEt); d = 2'-deoxy (DNA)
Result Type: target mRNA inhibition (%)
Answer with a number only, understood to be in %.

// solved cases for target mRNA inhibition follow
ACGCAATGCTGACTTG (sugars kkddddekekeddddd, PS); 92
AAGTATTGCCAGCTAA (sugars kkdddddkekeddddd, PS); 73
CTATTAGAGGGCTAGT (sugars kdddddkekekddddd, PS); 28
GGAATTATGGAATTGC (sugars k3 d4 k3 e1 d5, PS); 65

For reference, reported target mRNA inhibition for CTAATTTTCTGACTGT (sugars k2 d4 e3 k2 d5, PS) stands at 83

For reference, reported target mRNA inhibition for CACATCATTGGGTTAT (sugars kkddddekekeddddd, PS) stands at 81

###

Target Desc: KRAS
Recorded Conditions: ASO, A431, 0.037 µM
After the bases stand the sugars from the 5' end (letter, count) and the backbone: PS all phosphorothioate, else s phosphorothioate and o phosphodiester by linkage. Methylation of C is not given here. e = 2'-O-(2-methoxyethyl) (MOE); k = constrained ethyl (cEt); d = 2'-deoxy (DNA)
Result Type: target mRNA inhibition (%)
Answer with a number only, understood to be in %.

// solved cases for target mRNA inhibition follow
CTTGATTTGTCAGCAG (sugars kdddddddddkekeke, PS); 51
AGGTAAAAGCTAACAG (sugars k3 d10 k3, PS); 46
TCTCTATGAAAGCTCA (sugars k3 d10 k3, PS); 61

Given the sequence CTTGATTTGTCAGCAG (sugars kddddddddddkekek, PS) and test system KRAS, the measured target mRNA inhibition is 62

Given the sequence CTTGATTTGTCAGCAG (sugars kkddddddddkekekk, PS) and test system KRAS, the measured target mRNA inhibition is 55

Given the sequence TGACTAATAGCAGTGG (sugars k3 d10 k3, PS) and test system KRAS, the measured target mRNA inhibition is 64

###

Target Desc: IRF5
Recorded Conditions: ASO, KARPAS-229, 4 µM
After the bases stand the sugars from the 5' end (letter, count) and the backbone: PS all phosphorothioate, else s phosphorothioate and o phosphodiester by linkage. Methylation of C is not given here. e = 2'-O-(2-methoxyethyl) (MOE); k = constrained ethyl (cEt); d = 2'-deoxy (DNA)
target mRNA inhibition overview
Answer with a number only, understood to be in %.

// solved cases for target mRNA inhibition follow
CTGTCACATCTCCACA (sugars k3 d9 k3 e1, PS); 28
GGTCTTTGAGGTCTGG (sugars kkdddddddddkdkdk, PS); 56
ACCACTGTGTACCCCA (sugars kkddddddddkekekk, PS); 15
GGTCTGGCCCTTTTGG (sugars k3 d10 k3, PS); 16
ATTTCTGCTCCAGGTT (sugars kddddddddddkekek, PS); 39

For reference, reported target mRNA inhibition for CATCTCCACATCAGTC (sugars kkddddddddkekekk, PS) stands at 23

For reference, reported target mRNA inhibition for CATTCCATATACACAC (sugars kekdddddddddeekk, PS) stands at 24

For reference, reported target mRNA inhibition for TGAGTCATGGGCTGAG (sugars kkddddddddkekekk, PS) stands at 0

For reference, reported target mRNA inhibition for ACTGTATTACCTATAC (sugars k3 d10 k3, PS) stands at 22

###

Target Desc: DGAT2
Recorded Conditions: ASO, HepG2, 10 µM
After the bases stand the sugars from the 5' end (letter, count) and the backbone: PS all phosphorothioate, else s phosphorothioate and o phosphodiester by linkage. Methylation of C is not given here. e = 2'-O-(2-methoxyethyl) (MOE); d = 2'-deoxy (DNA)
target mRNA inhibition overview
Answer with a number only, understood to be in %.

GGTTATTGCAACCACTAGGA (sugars e5 d10 e5, PS); 91
GAGGCCAAGGACAGAGGTTC (sugars e5 d10 e5, PS); 81
GCTTCACCAGGGCCTCCATG (sugars e5 d10 e5, PS); 57
CTAAGCTTATTAGGTGTCTT (sugars e5 d10 e5, PS); 81
GATCTCAGTCACTGACTCAC (sugars e5 d10 e5, PS); 91

Given the sequence TCTTTGCTTGCCAGGTGAGC (sugars e5 d10 e5, PS) and test system DGAT2, the measured target mRNA inhibition is 71

Given the sequence GGCAAAGTAACATACCTGCT (sugars e5 d10 e5, PS) and test system DGAT2, the measured target mRNA inhibition is 94

Given the sequence GGAGCAGGCCTCGGGAAGCA (sugars e5 d10 e5, PS) and test system DGAT2, the measured target mRNA inhibition is 85

Given the sequence TAAGGGTATTCTGCTCATAA (sugars e5 d10 e5, PS) and test system DGAT2, the measured target mRNA inhibition is 93

Given the sequence GCATGCTTCCTCCCACTTCA (sugars e5 d10 e5, PS) and test system DGAT2, the measured target mRNA inhibition is 76

Given the sequence CAAGAGGTAAGGCCAAGGAA (sugars e5 d10 e5, PS) and test system DGAT2, the measured target mRNA inhibition is 90

###

target mRNA inhibition overview
Target Desc: APOL1
Recorded Conditions: ASO, A431, 2 µM
After the bases stand the sugars from the 5' end (letter, count) and the backbone: PS all phosphorothioate, else s phosphorothioate and o phosphodiester by linkage. Methylation of C is not given here. e = 2'-O-(2-methoxyethyl) (MOE); k = constrained ethyl (cEt); d = 2'-deoxy (DNA)
Answer with a number only, understood to be in %.

// solved cases for target mRNA inhibition follow
GTGTATTTCTTGATGT (sugars kkkddddkekekdddd, PS); 84
CACATCATTGGGTTAT (sugars kkkddddkekekdddd, PS); 58

Given the sequence GGAATTATGGAATTGC (sugars kkddddekekeddddd, PS) and test system APOL1, the measured target mRNA inhibition is 97

Given the sequence GTATTTCTTGATGTGG (sugars kddddkekekeddddd, PS) and test system APOL1, the measured target mRNA inhibition is 87

Given the sequence ACACATCATTGGGTTA (sugars kkkddddkekekdddd, PS) and test system APOL1, the measured target mRNA inhibition is 32

Given the sequence GAAGATTGGCTCTGGC (sugars kkkddddkekekdddd, PS) and test system APOL1, the measured target mRNA inhibition is 16

Given the sequence GCTTTAAACTCAGGTG (sugars kkkddddkdkdkdddd, PS) and test system APOL1, the measured target mRNA inhibition is 93

Given the sequence CACTTTATACCAGTGT (sugars kkkddddkekekdddd, PS) and test system APOL1, the measured target mRNA inhibition is 11

Given the sequence GCTTTAAACTCAGGTG (sugars k2 d4 e3 k2 d5, PS) and test system APOL1, the measured target mRNA inhibition is 91

Given the sequence GTGTATTTCTTGATGT (sugars kkddddkekekddddd, PS) and test system APOL1, the measured target mRNA inhibition is 95

Given the sequence ATCAGATGGGTACTTC (sugars kkddddkekekkdddd, PS) and test system APOL1, the measured target mRNA inhibition is 45

Given the sequence AGTATTGTTTTTGTGG (sugars k3 d4 k3 e1 d5, PS) and test system APOL1, the measured target mRNA inhibition is 89

Given the sequence GGTTATGAAATTATTG (sugars k2 d4 e3 k2 d5, PS) and test system APOL1, the measured target mRNA inhibition is 61

Given the sequence ACGCAATGCTGACTTG (sugars k3 d4 k3 e1 d5, PS) and test system APOL1, the measured target mRNA inhibition is 88

Given the sequence GGCATTCAGAATTTCC (sugars kkddddekekeddddd, PS) and test system APOL1, the measured target mRNA inhibition is 93
